# tested-system: cytoplasmic domain of VraS (VraS-C) (Staphylococcus aureus)
# Sequence (Q99SZ7 70-347): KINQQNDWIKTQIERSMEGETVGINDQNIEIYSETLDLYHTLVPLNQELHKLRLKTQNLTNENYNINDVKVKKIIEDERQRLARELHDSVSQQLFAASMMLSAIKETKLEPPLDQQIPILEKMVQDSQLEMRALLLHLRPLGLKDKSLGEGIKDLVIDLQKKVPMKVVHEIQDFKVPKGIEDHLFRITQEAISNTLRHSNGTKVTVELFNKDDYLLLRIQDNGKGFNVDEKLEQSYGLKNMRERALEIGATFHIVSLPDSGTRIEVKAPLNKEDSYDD
# method-notes: biochemical
# Assay type: binding
# test-settings: new run with His-tagged VraS
Exercise: state measured RUmax VraS for each of the molecules provided.

O=C(Nc1nnc(-c2ccc(Br)cc2)o1)c1ccc(Cl)s1 | 52.9 ± 12.8

For every listed record, write down its RUmax VraS.
1. Cc1cc(/C=C/c2ccc3cc(N(C)C)ccc3[n+]2C)c(C)n1-c1ccccc1
2. O=C(Nc1nnc(-c2ccccc2Cl)o1)c1cccc(C(F)(F)F)c1
3. O=C(Nc1nnc(-c2ccccc2Cl)o1)c1nc2ccccc2s1
4. O=C(Nc1nnc(-c2cc(Cl)sc2Cl)o1)c1nc2ccccc2s1

1. 46.5 ± 2.9
2. 45.1 ± 3.2
3. 64.3 ± 5.4
4. 69.1 ± 6.2

The reported numbers originate from patent US9675592B2.
